Molecular target: Met receptor (EGFR/Met chimeric cells, EMR) (Homo sapiens, UniProt P08581)
Construct: expressed in transfected cells; the other entry of the earlier key: EGFR (P00533, Epidermal growth factor receptor)
Sequence (P08581 with tags, fused parts or gaps): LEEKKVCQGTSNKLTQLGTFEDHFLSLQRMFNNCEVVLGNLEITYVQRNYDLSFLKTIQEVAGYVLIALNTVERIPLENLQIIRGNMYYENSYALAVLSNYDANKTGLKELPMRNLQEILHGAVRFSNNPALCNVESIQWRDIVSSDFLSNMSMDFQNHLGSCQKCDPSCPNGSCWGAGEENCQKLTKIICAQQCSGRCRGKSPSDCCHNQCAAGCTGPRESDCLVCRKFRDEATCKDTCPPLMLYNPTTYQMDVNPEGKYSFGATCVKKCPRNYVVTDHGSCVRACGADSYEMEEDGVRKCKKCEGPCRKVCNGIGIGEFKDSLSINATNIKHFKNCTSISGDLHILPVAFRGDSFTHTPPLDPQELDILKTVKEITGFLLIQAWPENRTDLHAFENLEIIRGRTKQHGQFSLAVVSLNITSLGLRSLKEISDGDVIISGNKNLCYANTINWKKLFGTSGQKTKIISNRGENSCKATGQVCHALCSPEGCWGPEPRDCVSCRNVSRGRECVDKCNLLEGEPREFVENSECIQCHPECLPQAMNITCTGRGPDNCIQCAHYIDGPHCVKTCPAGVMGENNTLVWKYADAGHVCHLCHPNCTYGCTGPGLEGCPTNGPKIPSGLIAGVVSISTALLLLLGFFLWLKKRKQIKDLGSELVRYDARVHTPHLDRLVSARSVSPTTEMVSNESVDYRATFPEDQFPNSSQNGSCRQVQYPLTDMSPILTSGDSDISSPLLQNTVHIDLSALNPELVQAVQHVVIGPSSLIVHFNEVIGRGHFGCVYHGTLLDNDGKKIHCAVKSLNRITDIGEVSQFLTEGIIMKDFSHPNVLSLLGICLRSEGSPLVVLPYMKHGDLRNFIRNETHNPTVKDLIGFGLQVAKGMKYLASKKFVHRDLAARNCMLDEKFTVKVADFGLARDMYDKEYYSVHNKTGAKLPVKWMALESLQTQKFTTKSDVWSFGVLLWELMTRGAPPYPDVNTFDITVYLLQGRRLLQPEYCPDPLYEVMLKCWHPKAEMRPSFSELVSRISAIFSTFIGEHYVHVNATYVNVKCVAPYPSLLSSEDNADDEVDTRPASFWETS
Test: Met Autophosphorylation Assay
Assay type: biochemical
Details: protocol P.130
Grouping by measured Met Kinase % Inhibition (P.130) is done with the following cut points: lower level = under 40%, middle level = from 40% up to 70%, upper level = 70% and over

Observe how each entry below is paired with its result.
[[record]]
compound = "Cc1ccc(C)c(C=C2C(=O)Nc3c(Br)cc(Br)cc32)c1"
answer_label = "lower level"

[[record]]
compound = "Cc1c(Br)cc(Br)c2c1C(=Cc1cc(Br)cs1)C(=O)N2"
answer_label = "middle level"


Each compound maps to one class by Met Kinase % Inhibition (P.130). Which class for COC1CCCN1C=C1C(=O)Nc2ccc(I)cc21 (racemic) ?
upper level

// bin(item) where item = `CNS(=O)(=O)c1ccc2c(c1)C(=Cc1ccc(Cl)c(Cl)c1)C(=O)N2`
lower level

Note: place this compound into its band. Item: `COc1ccc(C=C2C(=O)Nc3ccc(I)cc32)cc1F`
upper level

###

Target: Met receptor (EGFR/Met chimeric cells, EMR) (Homo sapiens, UniProt P08581)
Construct: expressed in transfected cells; the other entry of the earlier key: EGFR (P00533, Epidermal growth factor receptor)
Experiment: Met Autophosphorylation Assay
Assay type: biochemical
Conditions: protocol P.130
value type: Met Kinase % Inhibition (P.130) (%)
All answers are understood in %, so give the number only.

[[record]]
compound = "COc1ccc(C=C2C(=O)Nc3c(Br)cc(Br)cc32)cc1F [10737/A06]"
numeric_value = 57.1

[[record]]
compound = "O=C1Nc2ccc(S(=O)(=O)N3CCOCC3)cc2C1=Cc1cc(F)ccc1F [10737/F04]"
numeric_value = 62.8


Look up and state reported Met Kinase % Inhibition (P.130) for Cc1c(Br)cc(Br)c2c1C(=Cc1cccc(O)c1O)C(=O)N2 [10738/H06]
93.8

Entry Cc1c(Br)cc(Br)c2c1C(=Cc1cc(O)cc(O)c1)C(=O)N2 [10738/H07] needs its Met Kinase % Inhibition (P.130) filled in; supply it.
77.2

Dear colleague, please send me the reported Met Kinase % Inhibition (P.130) for O=C1Nc2ccc(I)cc2C1=Cc1ccsc1 [10740/B05] when you can.
82.3

###

Target: Met receptor (EGFR/Met chimeric cells, EMR) (Homo sapiens)
Construct: expressed in transfected cells; the other entry of the earlier key: EGFR (P00533, Epidermal growth factor receptor)
Test: Met Autophosphorylation Assay
Assay type: biochemical
So basically, the class depends on measured Met Kinase % Inhibition (P.130), and the ranges are label 0 = under 30%, label 1 = from 30% up to 70%, label 2 = 70% and over

[[record]]
structure_smiles = "Cc1c(Br)cc(Br)c2c1C(=Cc1cc(O)ccc1O)C(=O)N2"
measurement_target = "Met receptor (EGFR/Met chimeric cells, EMR) (Homo sapiens)"
answer_label = "label 2"

[[record]]
structure_smiles = "O=C1Nc2ccc(S(=O)(=O)N3CCOCC3)cc2C1=Cc1ccc(Cl)cc1Cl"
measurement_target = "Met receptor (EGFR/Met chimeric cells, EMR) (Homo sapiens)"
answer_label = "label 0"

[[record]]
structure_smiles = "Cc1c(Br)cc(Br)c2c1C(=Cc1ccc[nH]1)C(=O)N2"
measurement_target = "Met receptor (EGFR/Met chimeric cells, EMR) (Homo sapiens)"
answer_label = "label 0"


Please report the category associated with `Cc1c(Br)cc(Br)c2c1C(=Cc1ccccc1O)C(=O)N2` , nothing else.
label 1

Please let me know in which category the item `COc1cccc(OC)c1C=C1C(=O)Nc2c(Br)cc(Br)c(C)c21` belongs.
label 0

Category of `O=C1Nc2ccc(CCCl)cc2C1=Cc1ccc([N+](=O)[O-])cc1` :
label 1

###

# Flk Kinase % Inhibition (P.110) per entry
Tested on: FLK-1 receptor
Test: FLK-1 Assay (cellular/catalytic ELISA, VEGF-stimulated phosphotyrosine)
Assay type: cell-based
Parameters: concentration or dose not given beside the values
Settings: protocol P.110
Note: unit % is implicit; provide only the numeric part.

Example cases with answers are listed next.
[[record]]
compound = "O=C1Nc2ccc(CCCl)cc2C1=Cc1cc(O)cc(O)c1"
value_type = "Flk Kinase % Inhibition (P.110)"
numeric_value = "−19.3"

[[record]]
compound = "O=C1Nc2ccc(I)cc2C1=Cc1cc(Br)cs1"
value_type = "Flk Kinase % Inhibition (P.110)"
numeric_value = 11.8

[[record]]
compound = "Cc1c(Br)cc(Br)c2c1C(=Cc1ccc(OCc3ccccc3)cc1)C(=O)N2"
value_type = "Flk Kinase % Inhibition (P.110)"
numeric_value = 9.9

[[record]]
compound = "COC1CCCN1C=C1C(=O)Nc2c(Br)cc(Br)c(C)c21 (stereo not shown)"
value_type = "Flk Kinase % Inhibition (P.110)"
numeric_value = 6.0

[[record]]
compound = "CCCCOc1ccc(C=C2C(=O)Nc3ccc(S(=O)(=O)NC)cc32)cc1"
value_type = "Flk Kinase % Inhibition (P.110)"
numeric_value = 3.0


Supply reported Flk Kinase % Inhibition (P.110) belonging to this compound: `O=C1Nc2ccc(S(=O)(=O)N3CCOCC3)cc2C1=Cc1ccc2ccccc2n1`
1.3

Determine its reported Flk Kinase % Inhibition (P.110): `O=C1Nc2ccc(I)cc2C1=Cc1ccnc2ccccc12`
−9.3

For the compound `O=C1Nc2ccc(CCCl)cc2C1=Cc1cc(F)ccc1F` , give its reported Flk Kinase % Inhibition (P.110).
12.1

Provide Flk Kinase % Inhibition (P.110) value for the following compound: `Cc1c(Br)cc(Br)c2c1C(=Cc1cccc(F)c1)C(=O)N2`
17.8

Return Flk Kinase % Inhibition (P.110) (reported value) for this compound: `Cn1cc(C=C2C(=O)Nc3ccc(S(=O)(=O)N4CCOCC4)cc32)c2ccccc21`
−6.3

Write down Flk Kinase % Inhibition (P.110) measured for item `Cc1c(Br)cc(Br)c2c1C(=Cc1cccc(Oc3ccc(C(C)(C)C)cc3)c1)C(=O)N2`
10.5

Please indicate Flk Kinase % Inhibition (P.110) recorded for `Cc1c(Br)ccc2c1C(=Cc1ccoc1)C(=O)N2`
−7.1

Give the reported value of Flk Kinase % Inhibition (P.110) for this record: `CC(C)c1ccc(C=C2C(=O)Nc3ccc(S(=O)(=O)Nc4ccc(C(F)(F)F)cc4)cc32)cc1`
5.1

Please give measured Flk Kinase % Inhibition (P.110) of the following entry: `CNS(=O)(=O)c1ccc2c(c1)C(=Cc1ccc(O)cc1Cl)C(=O)N2`
9.0

State its Flk Kinase % Inhibition (P.110) for this compound: `COc1ccccc1C=C1C(=O)Nc2ccc(CCCl)cc21`
4.1

Item `O=C1Nc2ccc(I)cc2C1=Cc1ccc(OCc2ccccc2)cc1` : provide Flk Kinase % Inhibition (P.110)
13.2

###

Test system: FLK-1 receptor
Experiment: FLK-1 Assay (cellular/catalytic ELISA, VEGF-stimulated phosphotyrosine)
Assay type: cell-based
Set-up: concentration or dose not given beside the values
Conditions: protocol P.110
Experimental: The cellular/catalytic assays described herein are performed in an ELISA format. […] Non-substrate components of the cell lysate are washed away and the amount of phosphorylation on the substrate is detected with an antibody specifically recognizing phosphotyrosine compared with control cells that were not contacted with a test compound. […]
Flk Kinase % Inhibition (P.110) by entry:
All answers are understood in %, so give the number only.

Observe how each entry below is paired with its result.
[[record]]
structure_smiles = "O=C1Nc2ccc(CCCl)cc2C1=Cc1ccc(O)cc1Cl"
measurement_target = "FLK-1 receptor"
numeric_value = 14.0

[[record]]
structure_smiles = "CCCOc1ccc(C=C2C(=O)Nc3c(Br)cc(Br)c(C)c32)cc1"
measurement_target = "FLK-1 receptor"
numeric_value = "−4.1"

[[record]]
structure_smiles = "CNS(=O)(=O)c1ccc2c(c1)C(=Cc1cccc(Oc3ccc(C(C)(C)C)cc3)c1)C(=O)N2"
measurement_target = "FLK-1 receptor"
numeric_value = 23.2

[[record]]
structure_smiles = "CNS(=O)(=O)c1ccc2c(c1)C(=Cc1cc(O)ccc1[N+](=O)[O-])C(=O)N2"
measurement_target = "FLK-1 receptor"
numeric_value = "−12.5"

[[record]]
structure_smiles = "COc1ccc(Oc2cccc(C=C3C(=O)Nc4ccc(CCCl)cc43)c2)cc1"
measurement_target = "FLK-1 receptor"
numeric_value = 15.0

[[record]]
structure_smiles = "CCOc1ccc(C=C2C(=O)Nc3ccc(S(=O)(=O)Nc4ccc(C(F)(F)F)cc4)cc32)cc1"
measurement_target = "FLK-1 receptor"
numeric_value = 14.3


Look up and report measured Flk Kinase % Inhibition (P.110) for this entry: `CCOc1ccc(C=C2C(=O)Nc3c(Br)cc(Br)c(C)c32)cc1`
3.1

Provide Flk Kinase % Inhibition (P.110) value for the following compound: `CCCCOc1ccc(C=C2C(=O)Nc3c(Br)cc(Br)cc32)cc1`
−3.5

Return Flk Kinase % Inhibition (P.110) for the following compound: `COc1ccc(C=C2C(=O)Nc3c(Br)cc(Br)c(C)c32)cc1F`
5.8
